- Tested on: Salmonella spp.
- method_notes: MIC by agar dilution (NCCLS M7-A4), 288 enteropathogenic isolates, gemifloxacin and 15 other antimicrobials
- Format: cell-based
- condition_summary: Salmonella spp. N= 106
endpoint_label: MIC (mg/L) Range

>>> reported_result("Cc1c(F)c(N2CCNC(C)C2)cc2c1c(=O)c(C(=O)O)cn2C1CC1 (stereo not shown) [Grepafloxacin, grepafloxacin]")
"0.03 to 2 mg/L"
>>> reported_result("C[C@H]1c2cccc(O)c2C(=O)C2=C(O)[C@]3(O)C(=O)C(C(N)=O)=C(O)[C@@H](N(C)C)[C@@H]3[C@@H](O)[C@@H]21 [Doxycycline, doxycycline]")
"1 to 128 mg/L"
>>> reported_result("CO/N=C(\\C(=O)N[C@@H]1C(=O)N2C(C(=O)O)=C(COC(C)=O)CS[C@H]12)c1csc(N)n1 [Cefotaxime, cefotaxime]")
"0.06 to 0.5 mg/L"

Here is the next item to consider.
Known value: Salmonella spp. MIC (mg/L) Range of the molecule CCn1cc(C(=O)O)c(=O)c2cc(F)c(N3CCNCC3)cc21 [Norfloxacin, norfloxacin] equals 0.06 to 4 mg/L

* * *

Exercise: for every item that follows, state its recorded MIC Range.
- Tested on: Staphylococcus aureus
- method_notes: MIC by NCCLS broth microdilution, 1100 Japanese clinical isolates 1997-1998
- Assay type: cell-based
- condition_summary: Staphylococcus aureus oxacillin susceptible (n=41)

Known MIC Range results, listed for orientation:
>>> reported_result("N[C@@H]1[C@H]2CN(c3nc4c(cc3F)c(=O)c(C(=O)O)cn4-c3ccc(F)cc3F)C[C@@H]12")
"≤0.008 to 0.5 µg/mL"
>>> reported_result("C[C@@H]1CN(c2c(F)c(N)c3c(=O)c(C(=O)O)cn(C4CC4)c3c2F)C[C@H](C)N1")
"0.032 to 1 µg/mL"
>>> reported_result("CO/N=C1\\CN(c2nc3c(cc2F)c(=O)c(C(=O)O)cn3C2CC2)CC1CN (racemic)")
"≤0.008 to 1 µg/mL"

MIC Range reading for C[C@H]1COc2c(N3CCN(C)CC3)c(F)cc3c(=O)c(C(=O)O)cn1c23 : 0.125 to 1 µg/mL

* * *

- System: Shigella spp.
- method_notes: MIC by NCCLS broth microdilution, 1100 Japanese clinical isolates 1997-1998
- Type: cell-based
- condition_summary: Shigella spp. (n=34)
endpoint_label: MIC50

>>> reported_result("CO/N=C1\\CN(c2nc3c(cc2F)c(=O)c(C(=O)O)cn3C2CC2)CC1CN (racemic)")
"≤ 8 ng/mL"
>>> reported_result("C[C@@H]1CN(c2c(F)c(N)c3c(=O)c(C(=O)O)cn(C4CC4)c3c2F)C[C@H](C)N1")
"≤ 8 ng/mL"

// below: MIC50 requested for another compound
For N[C@@H]1[C@H]2CN(c3nc4c(cc3F)c(=O)c(C(=O)O)cn4-c3ccc(F)cc3F)C[C@@H]12 the compound record lists MIC50 as ≤ 8 ng/mL
